Target: SARS-CoV spike protein (full length, trimeric) (SARS-CoV, UniProt P59594 14-1190)
measurement_name: fold over isotype control (median fluorescence) (fold over isotype)
Give bare numbers, in fold over isotype.

{"binder": "antibody 452 (antibody, V domains shown) VH: QVQLVESGGGLVKPGGSLRLSCAASGFTFSDYYLSWIRQAPGKGLEWVSYISSSGSNIYYADSVKGRFTISRDNAKNSLYLQMNSLRADDTAVFYCARAGRYCSGGSCRVEYFQHWGQGTLVTVSS VL: SYELTQPPSVSVSPGQTARITCSGDALPKQYAYWYQQKPGQAPVLVIYKDNERPSGIPERFSGSSSGTTATLTISGVQAEDEADYYCQSADSSGTVVFGGGTKLTVL", "observed_value": 1.09}
{"binder": "antibody 475 (antibody, V domains shown) VH: QVQLVESGGGVVQPGRSLRLSCAASGFTFSSYAMHWVRQAPGKGLEWVTFISHEGSNKYYADSVKGRFTISRDNSKNTLYLQMNSLRAEDTAVYYCARTFEYSSSSATGDFDYWGQGTLVTVSS VL: QSVLTQPPSVSGAPGQRVTISCTGSSSNIGAGYDVHWYQQLPGTAPKLLIYGNSNRPSGVPDRFSGSKSGTSASLAITGLQAEDEADYYCQSYDSSLSGVVFGGGTKLTVL", "observed_value": 1.18}

Turning now to a further binder:
Query antibody 474 (antibody, V domains shown) VH: EVQLVESGGGLVQPGGSLRLSCAASGFTFSSYWMHWVRQAPGKGLVWVSRINSDGSSTSYADSVKGRFTISRDNAKNTLYRQMNSLRAEDTAVYYCALGPLDIVGSYYYYGMDVWGQGTTVTVSS VL: NFMLTQPHSVSESPGKTVTISCTGSSGSIASNYVQWYQQRPGSAPTTVIYEDNQRPSGVPDRFSGSIDSSSNSASLTISGLKTEDEADYYCQSYDSSNQDVVFGGGTKLTVL yields fold over isotype control (median fluorescence) of 1.1
